Data credit: patent US10959961B2

- Assay notes: Adjusting the pH of the phenolate emulsion to 9.1 with sodium bicarbonate (Examples 7 and 8)
- Format: physicochemical
- Setup conditions: Example 7; from carbon-filtered industrial hemp extract; emulsion adjusted to pH 9.1, color change and lipid phase separation; read-out: pKa of cannabidiol in water
Quantity: pKa

>  <Query smiles>
C=C(C)[C@@H]1CCC(C)=C[C@H]1c1c(O)cc(CCCCC)cc1O

>  <Value observed>
> 9.1

$$$$
